- targetUnderTest: T1, CEACAM1 antigen (Sino Biological, Inc.) (UniProt P13688 35-428)
- T1 construct: Bought antigen, coated on the ELISA plate; construct not described; also called CEACAM1 (CD66a) antigen; CD66a
- T1 sequence (looked up): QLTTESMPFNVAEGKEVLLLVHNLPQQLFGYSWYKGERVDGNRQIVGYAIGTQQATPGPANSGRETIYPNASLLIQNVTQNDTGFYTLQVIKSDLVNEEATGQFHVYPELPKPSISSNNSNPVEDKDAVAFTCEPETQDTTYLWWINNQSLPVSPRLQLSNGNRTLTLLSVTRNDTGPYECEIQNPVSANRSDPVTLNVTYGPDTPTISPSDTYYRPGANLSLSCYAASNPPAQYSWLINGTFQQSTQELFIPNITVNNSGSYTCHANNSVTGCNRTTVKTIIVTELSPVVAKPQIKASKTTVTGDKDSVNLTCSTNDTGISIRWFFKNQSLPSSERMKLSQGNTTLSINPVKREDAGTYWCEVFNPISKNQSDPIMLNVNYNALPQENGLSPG
- methodDescription: ELISA, CEACAM1 coated 100 ng/well, antibody at 41.15 ng/ml
For each of the binders below, state its OD 450 nm.
Give the value in OD 450 nm but do not write OD 450 nm after it.

The recorded OD 450 nm for anti-CD66c chimeric antibody 8F5 (antibody, human IgG1, V domains shown, also called chimeric 8F5; chi 8F5) VH: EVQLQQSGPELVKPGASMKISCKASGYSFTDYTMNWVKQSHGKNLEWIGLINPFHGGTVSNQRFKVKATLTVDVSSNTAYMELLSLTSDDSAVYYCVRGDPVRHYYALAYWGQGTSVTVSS VL: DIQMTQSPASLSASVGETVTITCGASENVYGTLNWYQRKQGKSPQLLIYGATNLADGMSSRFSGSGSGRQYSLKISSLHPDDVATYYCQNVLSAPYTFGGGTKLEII is 0.82

The recorded OD 450 nm for recombinant humanized anti-CD66c antibody Protein ID 3007 (Vk7 + VH6) (antibody, human IgG1, V domains shown, also called hu 3007; #43) VH: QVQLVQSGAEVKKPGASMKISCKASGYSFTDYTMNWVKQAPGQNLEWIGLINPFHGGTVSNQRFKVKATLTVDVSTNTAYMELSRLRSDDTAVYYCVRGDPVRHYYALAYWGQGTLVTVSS VL: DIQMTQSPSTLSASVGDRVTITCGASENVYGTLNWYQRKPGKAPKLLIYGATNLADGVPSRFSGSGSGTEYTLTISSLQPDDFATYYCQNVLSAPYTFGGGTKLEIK is 0.66

The recorded OD 450 nm for recombinant humanized anti-CD66c antibody Protein ID 3043 (Vk8 + VH6) (antibody, V domains shown, also called hu 3043; #71) VH: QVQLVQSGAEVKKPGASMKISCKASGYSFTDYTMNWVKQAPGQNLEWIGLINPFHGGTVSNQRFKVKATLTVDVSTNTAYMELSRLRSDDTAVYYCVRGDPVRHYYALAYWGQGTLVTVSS VL: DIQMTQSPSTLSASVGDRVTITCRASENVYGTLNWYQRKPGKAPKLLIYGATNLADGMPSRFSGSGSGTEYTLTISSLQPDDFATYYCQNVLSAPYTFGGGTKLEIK is 0.61

The recorded OD 450 nm for recombinant humanized anti-CD66c antibody Protein ID 3058 (Vk8 + VH11) (antibody, human IgG1, V domains shown, also called hu 3058; #86) VH: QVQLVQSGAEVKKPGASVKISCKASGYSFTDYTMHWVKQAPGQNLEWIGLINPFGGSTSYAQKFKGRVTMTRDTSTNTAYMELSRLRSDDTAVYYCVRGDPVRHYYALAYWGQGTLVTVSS VL: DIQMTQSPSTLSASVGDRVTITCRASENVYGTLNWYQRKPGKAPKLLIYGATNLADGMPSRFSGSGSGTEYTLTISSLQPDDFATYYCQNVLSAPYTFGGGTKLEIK is 0.07
